Test: NCI Yeast Anticancer Drug Screen. Data for the cln2 rad14 strain (AID 165);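 further: 0% = growth equal to vehicle treated cultures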
Details: S. cerevisiae cln2 rad14 strain, at 50.0 µM, active compounds read high
This is part of a sample that, as a whole, favours compounds with a hit. Of some 79,000 tested, about 15% had one in any assay.

Compound	growth inhibition, %
CN1CCN(C(=S)N(C(=O)c2ccco2)c2ccccc2)CC1	-2.4
CCCC1(C)COC(=O)OC1	13.9
C=C1C(=O)O[C@@H]2[C@H]3O[C@]3(C)CCC=C(C)CC[C@@H]12	9.05
N#CC(C#N)=Cn1c(=S)[nH]c2ccc([N+](=O)[O-])cc21	20.8
COc1ccc(O)c(C(=O)O)c1	12.6
C[n+]1ccc(/C(C#N)=N/O)cc1	20.6
Cc1c(-c2ccc3c(c2)OCO3)sc(N)c1C#N	4.25
CC(=O)OC1[C@H](OC(C)=O)C2=C(C)[C@@H](OC(C)=O)C[C@@]2(C(C)(C)O)[C@@H](OC(C)=O)[C@H]2[C@@]1(C)[C@@H](OC(C)=O)CC(OC(C)=O)[C@]21CO1 (some centres not stated)	7.05
N#CCC(=O)N/N=C1\C(=O)N(c2ccc(Cl)cc2)C(=O)C(=O)C1c1nc2ccccc2o1 (configuration not stated)	16.5
C=C(C)/C=C/S(=O)c1ccccc1 (configuration not stated)	-5.35
Cc1n[nH]c(=O)n1N1C(=O)c2ccccc2C1=O	-3.45
O=C(c1ccccc1Cl)c1ccc2ccccc2c1C(=O)O	6
CNC(=O)NC(c1ccc2c(c1)OCO2)c1cc2c(cc1O)OCO2 (configuration not stated)	14.2
O=C1c2cccc3cccc(c23)C1(O)S(=O)(=O)O (configuration not stated)	-13.8
COC(=O)[C@@H]1[C@H](OC(C)=O)CCC2[C@@]3(C[C@@H](c4ccoc4)O[C@@H]3OC)[C@H](C)CC[C@]21C(=O)OC (some centres not stated)	-8.7
N#C/C(=C\c1ccc[nH]1)C(=O)c1ccccc1	16.5
NC(Cc1ccccc1F)C(=O)O (configuration not stated)	13.6
O=C1CSC(c2ccc(Cl)cc2)N1c1ccc(-n2c(-c3ccccc3)nc3ccccc3c2=O)cc1 (configuration not stated)	-43.4
N#CC(C#N)=CN1CCCCC1	17.6
CN1C(=O)Cn2c(n[nH]c(=O)c2=O)-c2cc(Cl)ccc21	-36.5
C/C(=N\N=C(N)N)c1sc(-c2nc(C)c(/C(C)=N/N=C(N)N)s2)nc1C	26.4
CC(CC(=O)Nc1ccc(NC(=O)CC(C)N=NC(N)=S)cc1)N=NC(N)=S (configuration not stated)	-27.2

###

Test: NCI Yeast Anticancer Drug Screen. Data for the mlh1 rad18 strain (AID 175)
Settings: S. cerevisiae mlh1 rad18 strain growth inhibition; at 50.0 µM; active compounds read high
Description: Growth inhibition of yeast strains with defined genetic alterations is measured as a screen for potential anti-cancer activity. Selected strains with alterations in DNA damage repair or cell cycle control were exposed to compounds and growth inhibition was measured relative to vehicle treated controls. The strain used in this assay is mlh1 rad18
About 79,000 compounds went through this panel and 15% of them were active in at least one assay; those are over-represented in the sample as a whole.
Readout type: growth inhibition (%)

> print(dat)
                                   compound       readout.type  unit.abbreviation  numeric.value
1  CSC1(C)C(=O)Nc2cc(C(F)(F)F)ccc21 (stereo unspecified)  growth inhibition                  %            3.4
2   O=S(=O)(CS(=O)(=O)c1ccccc1Br)c1ccccc1Br  growth inhibition                  %           6.95
3  CCC(C)N(C(C)=O)C(C)CC (stereo unspecified)  growth inhibition                  %           1.85
4           Cc1cccc(C)c1NC(=O)Nc1cccc(Cl)c1  growth inhibition                  %           -0.8
5  O=C(Oc1ccc2c(=O)cc(-c3ccccc3)oc2c1OC(=O)c1ccccc1)c1ccccc1  growth inhibition                  %              3
6       Cc1ccc(S(=O)(=O)NNC(=O)c2cccnc2)cc1  growth inhibition                  %            4.8

###

Listing of recorded growth inhibition by entry.
Assay: NCI Yeast Anticancer Drug Screen. Data for the mec2-1 strain (AID 157)
Conditions: S. cerevisiae mec2-1 strain, at 50.0 µM, active compounds read high
This is part of a sample that, as a whole, favours compounds with a hit. Of some 79,000 tested, about 15% had one in any assay.
Readout type: growth inhibition (%)

> print(dat)
                      query.smiles       readout.type  numeric.value
1                      CCC(=O)NCCO  growth inhibition          -17.7
2  COc1cc(C=O)cc(NC(C)=O)c1OC(C)=O  growth inhibition            0.3
3          Cc1cc(C)cc(OCCC(=O)O)c1  growth inhibition          -16.6

###

Experiment: NCI Yeast Anticancer Drug Screen. Data for the mec2-1 strain (AID 157)
Conditions: S. cerevisiae mec2-1 strain, at 50.0 µM
The panel holds about 79,000 compounds, 15% with a hit somewhere; the sample as a whole holds those more often. Calls of active or inactive are those of the source. Rule as the data show it: active = growth inhibition above about 70%; inactive = the rest.
Outcome codes: True = active, False = inactive

> print(dat)
                                   compound  category
1               Cc1cccc(C)c1Nc1n[nH]c(=S)s1     False
2  O=C(O)c1cc(N=Nc2ccc([N+](=O)[O-])cc2S(=O)(=O)O)ccc1O     False
3  CSCCC(NC(=O)CCCOc1ccc(Cl)cc1C)C(=O)O (centres undefined)     False
4  CCCCN(CCCC)CC(O)c1cc(OC)c2cc(Cl)cc(Cl)c2n1 (centres undefined)      True
5  COC(=O)C1CC(=O)N(CCCl)C1 (centres undefined)     False
6                O=Cc1cc(O)ccc1[N+](=O)[O-]     False
7  O=S1c2ccccc2S(=O)c2ccccc21 (centres undefined)     False
8  CC1(c2ccccc2)N=C(C(N)=O)c2[nH]cnc2N1 (centres undefined)     False
9  Cc1c(N=Nc2cccc(F)c2)c(-c2ccccc2)nn1C(=S)S     False

###

Assay: NCI Yeast Anticancer Drug Screen. Data for the bub3 strain (AID 167)
Conditions: S. cerevisiae bub3 mutant strain, at 50.0 µM, active compounds read high
Compounds without any hit were thinned out: in the full panel of roughly 79,000, 15% have a hit.
Readout type: growth inhibition (%)

> print(dat)
                                   compound  unit.abbreviation  numeric.value
1  Cc1ccc([N+](=O)[O-])cc1NC(=O)C(=O)C(C(=O)c1ccccc1F)C1OC(=O)c2ccccc21 (configuration not stated)                  %           -1.1
2                   c1ccc(CCN2CCCCCCCC2)nc1                  %          -8.95
3  CCC(CO)NC(=O)/C=C/c1ccccc1Cl (configuration not stated)                  %           -0.7
4  C(=C(/C=C/C(=C/c1ccccc1)c1ccccc1)c1ccccc1)\c1ccccc1                  %           0.65
5   O=S(=O)(C/C=C/COc1ccccc1)c1ccc2ccccc2c1                  %          -5.85
6                                CCOC(=O)CS                  %           20.6
7          Nc1cc(C(=O)c2ccccc2C(=O)O)ccc1Cl                  %          -28.8

###

Test: NCI Yeast Anticancer Drug Screen. Data for the bub3 strain (AID 167)
Settings: S. cerevisiae bub3 mutant strain, at 50.0 µM, active compounds read high
This is part of a sample that, as a whole, favours compounds with a hit. Of some 79,000 tested, about 15% had one in any assay.
Listed molecules paired with reported growth inhibition
Readout type: growth inhibition (%)

> print(dat)
                                    molecule       readout.type  unit.abbreviation  numeric.value
 1  O=[N+]([O-])c1ccc(Sc2ccc([N+](=O)[O-])cc2)cc1  growth inhibition                  %           -0.1
 2       Cc1nc(NCCNCCO)nc2c1C(=O)Nc1ccccc1N2  growth inhibition                  %           -3.9
 3  CC1CC=CCC1COB(OCC1CC=CCC1C)OCC1CC=CCC1C (stereo not drawn)  growth inhibition                  %           24.3
 4  CCN(CC)CCCC(C)Nc1c2ccccc2nc2cc(Cl)cc(Cl)c12 (stereo not drawn)  growth inhibition                  %            9.6
 5  CC(CO)(CO)N1C(=O)c2cccc3cc([N+](=O)[O-])cc(c23)C1=O  growth inhibition                  %           35.2
 6            C[N+]1(C)N=C(c2ccccc2)C=C1[O-]  growth inhibition                  %           -2.5
 7  CCCNCCCCC(C)Nc1cc(OC)cc2cccnc12 (stereo not drawn)  growth inhibition                  %            8.2
 8  CN(C)C(=O)C1C2CC3OC(=O)C1C3C2 (stereo not drawn)  growth inhibition                  %          -1.65
 9                                 COCCCCCOC  growth inhibition                  %           12.3
10                  CCCCCCCCCOc1ccc2ccccc2c1  growth inhibition                  %          -15.2
11  CCOC(CCC#N)c1ccc(C)cc1 (stereo not drawn)  growth inhibition                  %            0.8
12     Cc1ccc(CC(=O)C(=O)O)c([N+](=O)[O-])c1  growth inhibition                  %          -17.9
13              Nc1nc(N)c2nc3c(nc2n1)CCCCCC3  growth inhibition                  %           -3.2
14  Cc1ccc(C(=O)C(c2nc3n(c2O)/C(=N/C(=O)Nc2ccc(Cl)cc2)N=N3)c2nc3n(c2O)/C(=N/C(=O)Nc2ccc(Cl)cc2)N=N3)cc1  growth inhibition                  %          -29.1
15        Cc1ccc(C)c2c(Cl)c3c(C)ccc(C)c3nc12  growth inhibition                  %           -9.8
16                   Cc1ncc2c[n+]([O-])ccn12  growth inhibition                  %           17.4
17  CC1NC(=O)CC(c2ccccc2)N(N=O)C1c1ccccc1 (stereo not drawn)  growth inhibition                  %          -9.05
18  O=C1OC(=O)C2C3C=CC(C3)C12 (stereo not drawn)  growth inhibition                  %          -1.45
19             OCc1cc2ccccc2c2c3c(ccc12)OCO3  growth inhibition                  %          -1.05
20  NC(Cc1c[nH]c2ccc(F)cc12)C(=O)O (stereo not drawn)  growth inhibition                  %          -14.4
21                  O=C(NCCCl)NC(C1CC1)C1CC1  growth inhibition                  %           13.4
22                  c1ccc2c(C3=NCCO3)cccc2c1  growth inhibition                  %              4
23                     S=C(c1ccccc1)N1CCCCC1  growth inhibition                  %           16.3
24  c1ccc(C2=NC3CCCCC3S2)cc1 (stereo not drawn)  growth inhibition                  %          -5.55
25  CN1C(=O)CC(c2ccc(Cl)cc2)C1=O (stereo not drawn)  growth inhibition                  %          -3.75
26  CCc1ccc(N=Nc2c(F)c(F)c(N(C)C)c(F)c2F)cc1  growth inhibition                  %           1.05
27  CC(=O)NC(CCCNC(=O)N(C)N=O)C(=O)NCc1ccccc1 (stereo not drawn)  growth inhibition                  %          -21.2
28       CCOC(=O)C1CC1C#N (stereo not drawn)  growth inhibition                  %           9.95
29   COc1ccc(/C=C(\C(C)=O)C(=O)Nc2ccccc2)cc1  growth inhibition                  %            6.2
30  Oc1ccccc1C=Nc1ccc2c(ccc3c4ccccc4ccc23)c1  growth inhibition                  %           48.1
31                    N#CC1=C(Nc2ccccc2)CCC1  growth inhibition                  %           2.25
32  O=C1CC(C(=O)O)CC(=O)CC(C(=O)O)C1 (stereo not drawn)  growth inhibition                  %           14.9
33  c1ccc(-c2cc(-c3cc(-c4ccccc4)n(-c4ccccc4)n3)nn2-c2ccccc2)cc1  growth inhibition                  %            -14
34  COC(=O)c1nn2c(=O)n(C(C)=O)c3ccccc3c2c1C(=O)OC  growth inhibition                  %            8.5
35                        COc1ccc(C=O)c(C)c1  growth inhibition                  %          -15.8
36               COc1cc(/C=N/NC2=NCCN2)ccc1O  growth inhibition                  %           18.9
37  COC1OC(C(=O)O)C(O)C(O)C1O (stereo not drawn)  growth inhibition                  %          -17.6
38              CC(=O)Nc1c(F)c(F)c(F)c(F)c1F  growth inhibition                  %           14.3

Every entry's value here was drawn from PubChem BioAssay (NCI).
